Where do the numbers come from? From ChEMBL document CHEMBL6109132.

Molecular target: Nuclear receptor subfamily 1 group I member 3 (Homo sapiens, UniProt Q14994)
Sequence (Q14994 whole entry): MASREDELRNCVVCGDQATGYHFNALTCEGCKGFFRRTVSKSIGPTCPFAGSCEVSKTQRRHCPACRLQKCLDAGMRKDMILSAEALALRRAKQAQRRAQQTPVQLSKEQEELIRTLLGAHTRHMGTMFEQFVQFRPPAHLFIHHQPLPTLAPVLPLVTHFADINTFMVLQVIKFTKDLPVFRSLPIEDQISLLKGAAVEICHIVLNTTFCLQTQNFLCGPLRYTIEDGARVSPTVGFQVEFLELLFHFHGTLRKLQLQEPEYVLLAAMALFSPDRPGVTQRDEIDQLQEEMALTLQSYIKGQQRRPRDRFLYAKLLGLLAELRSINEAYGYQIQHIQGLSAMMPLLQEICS
Assay: Agonist activity at human CAR expressed in human HepG2 cells co-expressing CYP2B6 incubated for 23 hrs by Luciferase reporter gene assay
Measurement Name: EC50 (nM)

Sample records with EC50:
c1ccc2c(c1)CC(NCc1c(-c3ccc4ccccc4c3)nc3occn13)C2: 670
Cc1ccccc1CCNC(=O)c1c(-c2ccc3ccccc3c2)nc2occn12: 830
O=C(N[C@H]1C[C@H](c2ccccc2)C1)c1c(-c2ccc3ccccc3c2)nc2occn12: 1100

(A) O=C(NCC1Cc2ccccc2C1)c1c(-c2ccc3ccccc3c2)nc2occn12
(B) O=C(NC1Cc2ccccc2C1)c1c(-c2ccc3c(c2)OCCO3)nc2occn12
INPUT: When the recorded EC50 values are compared, which is smaller: that of A or that of B ? Your choice should be expressed through its label.
OUTPUT: A
